Biological target: T1, human GFRα3 expressed with a C-terminal mFc tag (human)
T1 construct: also called hGFRα3-mFc
T1 chain: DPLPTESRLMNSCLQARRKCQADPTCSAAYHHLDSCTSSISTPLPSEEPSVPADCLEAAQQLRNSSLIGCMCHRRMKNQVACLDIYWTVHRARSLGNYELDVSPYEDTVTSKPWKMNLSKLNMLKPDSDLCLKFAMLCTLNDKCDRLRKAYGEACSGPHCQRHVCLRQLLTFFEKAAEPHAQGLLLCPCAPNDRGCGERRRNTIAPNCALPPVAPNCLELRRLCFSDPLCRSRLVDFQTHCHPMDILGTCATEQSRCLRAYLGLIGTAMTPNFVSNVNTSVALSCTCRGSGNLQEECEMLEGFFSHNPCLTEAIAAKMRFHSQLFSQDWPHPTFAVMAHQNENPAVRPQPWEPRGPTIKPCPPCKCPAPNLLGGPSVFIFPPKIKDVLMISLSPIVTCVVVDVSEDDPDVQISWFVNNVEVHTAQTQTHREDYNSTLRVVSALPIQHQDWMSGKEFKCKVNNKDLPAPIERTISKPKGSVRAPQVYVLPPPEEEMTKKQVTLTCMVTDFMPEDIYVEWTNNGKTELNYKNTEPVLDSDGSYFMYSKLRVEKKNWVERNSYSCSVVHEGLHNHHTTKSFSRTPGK
Test: SPR, Ab captured, 25C
readout: koff (s⁻¹)
The answer is to be given in s⁻¹; state only the numeric part.

In the examples that follow, each entry is paired with its recorded koff.
{"columns": ["binder", "test-value"],
 "data": [
  ["H4H2295S (antibody, human IgG4, V domains shown, human IgG4 Fc (H4H)) VH: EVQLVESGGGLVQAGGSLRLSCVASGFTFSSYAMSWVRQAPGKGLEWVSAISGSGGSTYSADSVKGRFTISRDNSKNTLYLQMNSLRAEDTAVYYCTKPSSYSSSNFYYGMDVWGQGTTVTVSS VL: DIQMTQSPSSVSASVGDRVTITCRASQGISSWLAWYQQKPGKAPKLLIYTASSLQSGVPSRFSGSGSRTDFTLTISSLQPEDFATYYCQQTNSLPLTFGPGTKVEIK", "1.69e-06"],
  ["H4H2344S (antibody, human IgG4, V domains shown, human IgG4 Fc (H4H)) VH: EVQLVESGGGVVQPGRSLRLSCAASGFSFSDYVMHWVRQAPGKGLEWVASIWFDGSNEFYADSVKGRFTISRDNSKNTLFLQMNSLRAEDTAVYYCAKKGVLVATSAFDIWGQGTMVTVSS VL: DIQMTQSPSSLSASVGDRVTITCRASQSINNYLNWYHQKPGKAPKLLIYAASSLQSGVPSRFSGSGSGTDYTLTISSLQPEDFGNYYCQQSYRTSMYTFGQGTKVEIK", "1.56e-06"],
  ["H4H2294S (antibody, human IgG4, V domains shown, human IgG4 Fc (H4H)) VH: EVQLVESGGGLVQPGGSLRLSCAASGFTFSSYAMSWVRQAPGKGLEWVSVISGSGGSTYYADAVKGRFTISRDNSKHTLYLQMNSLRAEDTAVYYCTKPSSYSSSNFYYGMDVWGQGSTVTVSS VL: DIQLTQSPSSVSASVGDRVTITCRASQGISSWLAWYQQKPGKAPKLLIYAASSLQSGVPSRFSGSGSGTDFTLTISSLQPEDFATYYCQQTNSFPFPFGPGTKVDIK", "5.63e-06"],
  ["H4H2345S (antibody, human IgG4, V domains shown, human IgG4 Fc (H4H)) VH: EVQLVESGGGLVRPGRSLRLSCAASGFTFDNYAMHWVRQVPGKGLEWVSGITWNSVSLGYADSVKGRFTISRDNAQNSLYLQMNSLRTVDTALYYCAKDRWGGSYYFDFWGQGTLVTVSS VL: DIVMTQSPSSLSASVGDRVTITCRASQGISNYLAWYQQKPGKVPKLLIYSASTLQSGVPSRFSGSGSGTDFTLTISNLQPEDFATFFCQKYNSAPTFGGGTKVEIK", "3.01e-05"]
]}

Moving on to another binder below.
Consider H4H2293P (antibody, human IgG4, V domains shown, human IgG4 Fc (H4H)) VH: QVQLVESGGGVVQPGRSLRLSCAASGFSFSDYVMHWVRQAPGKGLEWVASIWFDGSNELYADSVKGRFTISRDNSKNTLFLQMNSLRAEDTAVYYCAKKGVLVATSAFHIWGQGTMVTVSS VL: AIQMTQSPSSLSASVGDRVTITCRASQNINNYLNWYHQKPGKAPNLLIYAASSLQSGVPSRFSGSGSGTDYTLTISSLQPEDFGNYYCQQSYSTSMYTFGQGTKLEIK . Its measured koff is 1.93e-06
